- assay_text: qHTS Assay for Identifying Gametocytocidal Compounds (AID 743244);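 further: on the % scale 0 is the no-effect control and ±100 the full control effect; actives lower the fluorescent signal which means gametocytes are killed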
- reported_conditions: P. falciparum 3D7 stage III-V gametocytes, alamarBlue, 72 h; stronger effect = lower value
- Text: Malaria cases and deaths have dropped 50% in 29 countries since 2000 due to the combined effects of long-lasting insecticidal bednets, indoor residual spraying, and artemisinin-based combination therapies (ACTs). […] Within live cells, the nonfluorescent resazurin is reduced to resorufin, a bright red fluorescence dye. Fluorescence decreases upon treatment of gametocytocidal compounds. […]
Results filed as inconclusive are left out.
Answer each item with its documented max response.
Your answer should be a plain number; it is taken to be in %.

Query: Given the entry `CCCCCCCCCC(=O)O[C@H]1CC[C@H]2[C@@H]3CCC4=CC(=O)CC[C@@H]4[C@H]3CC[C@]12C` , report its measured max response.
Result: 5.38

Query: Follow-up item: `CCC1(c2ccccc2)C(=O)N(COC)C(=O)N(COC)C1=O`
Result: -2.08

Query: Input `O=C1c2ccccc2C(=O)c2ccccc21`
Result: -6.63

Query: What about this compound? `CN[C@@H](C)Cc1ccccc1`
Result: 5.78

Query: `O=c1[nH]cnc2[nH]ncc12` , same question.
Result: -1.56

Query: Would you kindly repeat that for `COC(=O)C(Cl)C(=O)OC` ?
Result: -5.17

Query: Now try `CCc1cc2c(s1)-n1c(C)nnc1CN=C2c1ccccc1Cl` .
Result: 2.24

Query: // query: `CCC(C)(C)c1ccc(O)cc1`
Result: 15.1

Query: Would you mind doing `CNC(C)(C)Cc1ccccc1` as well?
Result: 20.1

Query: Follow-up item: COc1cc(CC(C)N)cc(OC)c1OC (stereo unspecified)
Result: 4.71

Query: Lookup `C[C@]1(O)CC[C@H]2[C@@H]3CCC4=CC(=O)CC[C@]4(C)[C@@]3(F)[C@@H](O)C[C@@]21C`
Result: 8.13

Query: Now this one: `CCN[C@@H](C)Cc1ccccc1`
Result: -4.1

Query: Further, for COc1ccc2c(c1)C13CCCC[C@@H]1C(C2)N(C)CC3 (stereo partly specified) ?
Result: 7.6

Query: Same read-out for `c1ccc(CN2CCNCC2)cc1` ?
Result: 8.43

Query: Also need `CC(C)NC(C)C` , thanks.
Result: 15.3

Query: What would you report for `CN1CCC[C@@H]1c1cccnc1` ?
Result: 35

Query: Queued: `O=C1OC(c2ccc(O)c(S(=O)(=O)O)c2)(c2ccc(O)c(S(=O)(=O)O)c2)c2c(Br)c(Br)c(Br)c(Br)c21`
Result: 21

Query: Next compound: O=C1Nc2ccc(Cl)cc2C(c2ccccc2Cl)=NC1O (stereo unspecified)
Result: 16.1

Query: Another compound: `COc1ccc2c3c1O[C@H]1[C@H](O)CC[C@H]4[C@@H](C2)N(C)CC[C@@]341`
Result: -0.489

Query: Same for `CC(=O)OCC1=C(C(=O)O)N2C(=O)[C@@H](N)[C@H]2SC1`
Result: -3.04

Query: Again, but for `COP(=S)(OC)SCN1C(=O)c2ccccc2C1=O`
Result: -4.68

Query: Now the compound `CCOP(=S)(OCC)Oc1ccc2c(C)c(Cl)c(=O)oc2c1`
Result: -0.845

Query: Same lookup for `O=C(O)c1ccccc1S` , please.
Result: 58.9

Query: Then this compound: `CNCC(=O)c1ccc(O)c(O)c1`
Result: 39.9

Query: Now consider `O=C1c2ccccc2C(=O)C1C(=O)C(c1ccccc1)c1ccccc1` .
Result: 4.31

Query: Also `CCN[C@@H](C)Cc1cccc(C(F)(F)F)c1` , if possible.
Result: 13.9
